Documented mass density across a set of molecules
# conditionContext: 328.15 K; 55000 kPa; Liquid; Vibrating tube method
reportedProperty: mass density (kg/m3)

[[record]]
molecule = "CCCCCCCCO [octan-1-ol]"
reportedproperty = "mass density"
quantitativereadout = 834.5

[[record]]
molecule = "CCCO [propan-1-ol]"
reportedproperty = "mass density"
quantitativereadout = 816.9

[[record]]
molecule = "CCCCCCCCCCO [decan-1-ol]"
reportedproperty = "mass density"
quantitativereadout = 837.7

[[record]]
molecule = "CCCCCCCCCO [nonan-1-ol]"
reportedproperty = "mass density"
quantitativereadout = 836

[[record]]
molecule = "CCCCCCCO [heptan-1-ol]"
reportedproperty = "mass density"
quantitativereadout = 832.1

[[record]]
molecule = "CCCCCO [pentan-1-ol]"
reportedproperty = "mass density"
quantitativereadout = 825.8

[[record]]
molecule = "CCCCO [butan-1-ol]"
reportedproperty = "mass density"
quantitativereadout = 821.8

[[record]]
molecule = "CCO [ethanol]"
reportedproperty = "mass density"
quantitativereadout = 804.7

[[record]]
molecule = "CCCCCCO [hexan-1-ol]"
reportedproperty = "mass density"
quantitativereadout = 829.1

[[record]]
molecule = "CCCCCCCCCCCO [1-undecanol]"
reportedproperty = "mass density"
quantitativereadout = 839.5


====

# conditionContext: 288.15 K; 1000 kPa; Liquid; Vibrating tube method
reportedProperty: mass density (kg/m3)

[[record]]
compound = "CCCCCCCO"
reportedproperty = "mass density"
quantitativereadout = 826.1

[[record]]
compound = "CCCCCCO"
reportedproperty = "mass density"
quantitativereadout = 822.7

[[record]]
compound = "CCO"
reportedproperty = "mass density"
quantitativereadout = 794.2

[[record]]
compound = "CCCO"
reportedproperty = "mass density"
quantitativereadout = 808.5

[[record]]
compound = "CCCCCCCCCO"
reportedproperty = "mass density"
quantitativereadout = 830.5

[[record]]
compound = "CCCCCCCCO"
reportedproperty = "mass density"
quantitativereadout = 829

[[record]]
compound = "CCCCO"
reportedproperty = "mass density"
quantitativereadout = 814.1

[[record]]
compound = "CCCCCCCCCCO"
reportedproperty = "mass density"
quantitativereadout = 832.8

[[record]]
compound = "CCCCCO"
reportedproperty = "mass density"
quantitativereadout = 818.7


====

Documented mass density across a set of compounds
# conditionContext: 338.15 K; 1000 kPa; Liquid; Vibrating tube method
reportedProperty: mass density (kg/m3)

[[record]]
compound = "CCCO"
quantitativereadout = 767.2

[[record]]
compound = "CCCCCCCCCCO"
quantitativereadout = 798.7

[[record]]
compound = "CCCCCO"
quantitativereadout = 781.2

[[record]]
compound = "CCO"
quantitativereadout = 750.2

[[record]]
compound = "CCCCCCCO"
quantitativereadout = 790.4

[[record]]
compound = "CCCCCCCCCCCO"
quantitativereadout = 801.1

[[record]]
compound = "CCCCO"
quantitativereadout = 774.9

[[record]]
compound = "CCCCCCCCCO"
quantitativereadout = 796.4

[[record]]
compound = "CCCCCCCCO"
quantitativereadout = 793.9

[[record]]
compound = "CCCCCCO"
quantitativereadout = 786.2


====

# conditionContext: 358.15 K; 50000 kPa; Liquid; Vibrating tube method
Numbers after ± are expanded uncertainties.
reportedProperty: mass density

[[record]]
compound = "CCCCCCCCO"
result = "813.6 ± 2.4 kg/m3"

[[record]]
compound = "CCCCCCCCCCO"
result = "817.7 ± 2.5 kg/m3"

[[record]]
compound = "CCCCO"
result = "799 ± 2.4 kg/m3"

[[record]]
compound = "CCCO"
result = "792.9 ± 2.5 kg/m3"

[[record]]
compound = "CCCCCCCCCCCO"
result = "819.6 ± 2.5 kg/m3"

[[record]]
compound = "CCCCCCCCCO"
result = "815.7 ± 2.6 kg/m3"

[[record]]
compound = "CCCCCCO"
result = "807.7 ± 2.5 kg/m3"

[[record]]
compound = "CCCCCO"
result = "803.8 ± 2.5 kg/m3"

[[record]]
compound = "CCO"
result = "779.5 ± 2.5 kg/m3"

[[record]]
compound = "CCCCCCCO"
result = "811.1 ± 2.6 kg/m3"


Data origin: the NIST ThermoML archive (doi:10.1016/j.jct.2011.10.023)
